Tested on: E. coli (KCTC 1682)
Settings: KCTC 1682, 18 h
Peptide text beside a SMILES is read from it.
Result Type: MIC, E. coli (KCTC 1682) (µg/mL)
Please respond with the number in µg/mL and leave the unit unwritten.

## Task Tell us which MIC, E. coli (KCTC 1682) value is on record for CC(=O)N[C@@H](CCCCN)C(=O)N[C@@H](Cc1c[nH]c2ccccc12)C(N)=O [BJK-7] (Ac-Lys-Trp-NH2)
## Result 128

## Task Specify MIC, E. coli (KCTC 1682) for CC(=O)N[C@@H](CCCCN)C(=O)N[C@@H](Cc1c[nH]c2ccccc12)C(=O)N[C@@H](CCCCN)C(N)=O [BJK-8] (Ac-Lys-Trp-Lys-NH2) and stop.
## Result 64

## Task Please give measured MIC, E. coli (KCTC 1682) of the following entry: "CC(=O)NCCNc1nc(NCC(=O)NCCNc2nc(NCC(=O)NCCNc3nc(NCC(N)=O)nc(N(CCCN)CCCN)n3)nc(N(Cc3ccccc3)Cc3ccccc3)n2)nc(N(CCCN)CCCN)n1"
## Result 16

## Task Please give measured MIC, E. coli (KCTC 1682) of the following entry: "CC(=O)NCCNc1nc(NCC(=O)NCCNc2nc(NCC(=O)NCCNc3nc(NCC(N)=O)nc(N(Cc4ccccc4)Cc4ccccc4)n3)nc(N(CCCN)CCCN)n2)nc(N(Cc2ccccc2)Cc2ccccc2)n1"
## Result 128

## Task Item "CC(=O)NCCNc1nc(NCC(N)=O)nc(N(CCCN)CCCN)n1" : provide MIC, E. coli (KCTC 1682)
## Result 128

## Task Identify the reported MIC, E. coli (KCTC 1682) for the following entry. "CC(=O)NCCNc1nc(NCC(=O)NCCNc2nc(NCC(N)=O)nc(N(Cc3ccccc3)Cc3ccccc3)n2)nc(N(CCCN)CCCN)n1"
## Result 64
